- system_name: PI3Kγ (p110 gamma) (Homo sapiens, UniProt P48736)
- Construct: purchased Invitrogen
- Sequence (P48736 whole entry): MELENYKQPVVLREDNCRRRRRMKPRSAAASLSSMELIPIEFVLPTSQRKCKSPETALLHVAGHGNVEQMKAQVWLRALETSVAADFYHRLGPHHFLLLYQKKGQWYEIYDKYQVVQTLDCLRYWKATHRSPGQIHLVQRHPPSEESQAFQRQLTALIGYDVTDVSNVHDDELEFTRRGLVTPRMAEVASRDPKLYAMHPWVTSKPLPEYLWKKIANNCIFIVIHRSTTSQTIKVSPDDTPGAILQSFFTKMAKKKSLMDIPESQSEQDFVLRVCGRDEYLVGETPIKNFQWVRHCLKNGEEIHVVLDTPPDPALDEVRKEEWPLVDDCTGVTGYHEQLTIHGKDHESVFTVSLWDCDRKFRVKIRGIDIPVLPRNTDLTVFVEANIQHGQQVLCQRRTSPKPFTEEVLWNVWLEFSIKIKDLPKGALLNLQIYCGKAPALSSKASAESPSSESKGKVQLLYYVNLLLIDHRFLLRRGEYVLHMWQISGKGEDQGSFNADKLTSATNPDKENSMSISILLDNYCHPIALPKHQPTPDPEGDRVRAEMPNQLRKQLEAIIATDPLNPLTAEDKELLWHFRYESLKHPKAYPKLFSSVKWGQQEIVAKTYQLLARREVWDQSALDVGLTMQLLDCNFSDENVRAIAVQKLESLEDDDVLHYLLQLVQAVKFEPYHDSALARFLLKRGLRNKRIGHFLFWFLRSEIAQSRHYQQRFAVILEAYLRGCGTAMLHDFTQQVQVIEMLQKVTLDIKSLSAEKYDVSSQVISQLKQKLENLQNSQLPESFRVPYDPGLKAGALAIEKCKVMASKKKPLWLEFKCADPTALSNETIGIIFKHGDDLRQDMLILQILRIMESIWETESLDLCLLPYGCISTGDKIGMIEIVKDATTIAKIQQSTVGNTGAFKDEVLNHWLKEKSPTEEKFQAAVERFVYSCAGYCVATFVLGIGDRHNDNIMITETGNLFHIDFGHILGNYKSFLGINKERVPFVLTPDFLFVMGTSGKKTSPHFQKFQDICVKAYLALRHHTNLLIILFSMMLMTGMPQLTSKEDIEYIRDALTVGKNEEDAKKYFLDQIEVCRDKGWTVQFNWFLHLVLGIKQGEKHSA
- measurement_description: PI3K biochemical enzyme assay (Adapta universal kinase assay), p110 gamma
- condition_description: 10 μM; read-out: PI3Kγ % inhib
Give inhibition at 10 µM for every item shown.
Express your answer in %, writing the number without its unit.

Input: For the compound CCC(Nc1ncnc2[nH]cnc12)c1nc2ccccc2nc1-c1ccccc1 (stereo not drawn) [Compound Q12] , what inhibition at 10 µM is on record?
Output: 96

Input: For the compound Cc1cccc2nc(C(C)Nc3ncnc4[nH]cnc34)c(-c3ccc(F)cc3)nc12 (stereo not drawn) [Compound Q7] , what inhibition at 10 µM is on record?
Output: 95

Input: For the compound CC(Nc1ncnc2[nH]cnc12)c1nc2ccccc2nc1-c1cc(F)cc(F)c1 (stereo not drawn) [Compound Q2] , what inhibition at 10 µM is on record?
Output: 86

Input: For the compound CCC(Nc1ncnc2[nH]cnc12)c1nc2cccc(C)c2nc1-c1ccccc1 (stereo not drawn) [Compound Q8] , what inhibition at 10 µM is on record?
Output: 83

Input: For the compound CC(Nc1ncnc2[nH]cnc12)c1nc2ccccc2nc1-c1ccccc1 (stereo not drawn) [Compound Q1] , what inhibition at 10 µM is on record?
Output: 99

Input: For the compound Cc1cccc(-c2nc3ccccc3nc2C(C)Nc2ncnc3[nH]cnc23)c1 (stereo not drawn) [Compound Q3] , what inhibition at 10 µM is on record?
Output: 94

Input: For the compound Cc1cccc2nc(C(C)Nc3nc(N)nc4[nH]cnc34)c(-c3ccc(F)cc3)nc12 (stereo not drawn) [Compound Q5] , what inhibition at 10 µM is on record?
Output: 98

Input: For the compound Cc1cccc2nc(C(C)Nc3nc(N)nc4[nH]cnc34)c(-c3ccccc3)nc12 (stereo not drawn) [Compound Q4] , what inhibition at 10 µM is on record?
Output: 99

Input: For the compound Cc1ccc(-c2nc3ccccc3nc2C(C)Nc2ncnc3[nH]cnc23)cc1 (stereo not drawn) [Compound Q11] , what inhibition at 10 µM is on record?
Output: 79

Input: For the compound Cc1cccc2nc(C(C)n3cnc4c(N)ncnc43)c(-c3ccccc3)nc12 (stereo not drawn) [Compound Q6] , what inhibition at 10 µM is on record?
Output: 89

Input: For the compound CCC(Nc1ncnc2[nH]cnc12)c1nc2cccc(F)c2nc1-c1ccccc1 (stereo not drawn) [Compound Q9] , what inhibition at 10 µM is on record?
Output: 95

Input: For the compound CC(Nc1ncnc2[nH]cnc12)c1nc2ccccc2nc1-c1c(F)cccc1F (stereo not drawn) [Compound Q10] , what inhibition at 10 µM is on record?
Output: 82

----------
- system_name: PI3Kβ (p110β/p85α) (Homo sapiens)
- Construct: purchased Invitrogen
- Sequence (P42338 whole entry): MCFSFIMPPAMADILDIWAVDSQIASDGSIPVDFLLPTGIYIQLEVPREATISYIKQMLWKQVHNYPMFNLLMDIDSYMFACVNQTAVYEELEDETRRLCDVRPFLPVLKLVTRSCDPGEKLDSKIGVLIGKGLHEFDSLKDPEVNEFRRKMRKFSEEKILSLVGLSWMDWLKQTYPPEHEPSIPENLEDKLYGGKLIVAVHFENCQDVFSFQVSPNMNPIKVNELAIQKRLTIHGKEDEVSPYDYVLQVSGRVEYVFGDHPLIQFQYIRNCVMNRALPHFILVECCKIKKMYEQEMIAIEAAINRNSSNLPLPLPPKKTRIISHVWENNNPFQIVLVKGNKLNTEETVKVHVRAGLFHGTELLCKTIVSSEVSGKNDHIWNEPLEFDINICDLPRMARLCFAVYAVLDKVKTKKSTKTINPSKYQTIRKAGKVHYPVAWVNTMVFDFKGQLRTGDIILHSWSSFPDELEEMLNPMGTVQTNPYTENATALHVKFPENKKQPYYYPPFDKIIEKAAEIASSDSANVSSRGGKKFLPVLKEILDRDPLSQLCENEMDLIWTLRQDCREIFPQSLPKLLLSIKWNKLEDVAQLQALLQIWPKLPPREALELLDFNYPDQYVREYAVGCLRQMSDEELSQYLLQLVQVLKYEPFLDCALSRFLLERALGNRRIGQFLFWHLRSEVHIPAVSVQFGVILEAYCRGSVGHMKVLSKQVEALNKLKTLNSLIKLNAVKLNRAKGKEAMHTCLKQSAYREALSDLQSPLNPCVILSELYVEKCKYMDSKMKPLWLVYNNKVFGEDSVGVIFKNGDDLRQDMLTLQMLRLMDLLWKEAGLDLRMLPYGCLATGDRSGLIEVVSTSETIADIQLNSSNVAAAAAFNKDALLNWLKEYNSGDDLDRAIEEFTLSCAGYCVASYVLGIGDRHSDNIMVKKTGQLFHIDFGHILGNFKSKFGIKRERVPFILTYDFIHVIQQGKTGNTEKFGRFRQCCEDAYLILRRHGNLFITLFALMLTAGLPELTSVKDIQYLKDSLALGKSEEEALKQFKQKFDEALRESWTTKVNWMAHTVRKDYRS
- Sequence (P27986 whole entry partner): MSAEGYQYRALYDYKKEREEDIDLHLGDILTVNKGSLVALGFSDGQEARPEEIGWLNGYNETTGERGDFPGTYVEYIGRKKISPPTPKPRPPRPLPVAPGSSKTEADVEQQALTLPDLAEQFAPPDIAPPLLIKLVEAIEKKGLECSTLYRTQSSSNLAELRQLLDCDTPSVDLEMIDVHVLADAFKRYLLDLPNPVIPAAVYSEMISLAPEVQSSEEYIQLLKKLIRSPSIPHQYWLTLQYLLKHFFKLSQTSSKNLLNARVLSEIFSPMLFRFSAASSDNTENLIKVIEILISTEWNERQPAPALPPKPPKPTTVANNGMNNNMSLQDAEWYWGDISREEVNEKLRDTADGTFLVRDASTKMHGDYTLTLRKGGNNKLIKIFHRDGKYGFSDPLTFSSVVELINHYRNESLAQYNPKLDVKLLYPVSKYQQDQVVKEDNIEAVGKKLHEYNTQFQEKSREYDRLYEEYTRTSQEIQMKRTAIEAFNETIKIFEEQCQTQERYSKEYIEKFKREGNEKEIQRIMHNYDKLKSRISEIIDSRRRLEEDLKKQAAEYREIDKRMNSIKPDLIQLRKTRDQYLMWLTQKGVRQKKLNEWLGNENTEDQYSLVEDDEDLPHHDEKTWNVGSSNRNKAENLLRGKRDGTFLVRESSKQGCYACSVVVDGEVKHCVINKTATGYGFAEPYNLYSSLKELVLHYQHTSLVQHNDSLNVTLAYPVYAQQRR
- measurement_description: PI3K biochemical enzyme assay (Adapta universal kinase assay), p110 beta/p85 alpha
- condition_description: Table 2, PI3k biochemical assays; read-out: p110β/p85α IC50
parameter_measured: IC50

Input: For the compound CCC(Nc1ncnc2[nH]cnc12)c1nc2cccc(F)c2nc1-c1ccccc1 (stereo not shown) [Compound Q9] , what IC50 is on record?
Output: > 10 µM

Input: For the compound Cc1cccc2nc(C(C)Nc3nc(N)nc4[nH]cnc34)c(-c3ccccc3)nc12 (stereo not shown) [Compound Q4] , what IC50 is on record?
Output: 1.13 µM

Input: For the compound CC(Nc1ncnc2[nH]cnc12)c1nc2ccccc2nc1-c1cc(F)cc(F)c1 (stereo not shown) [Compound Q2] , what IC50 is on record?
Output: > 10 µM

Input: For the compound CC(Nc1ncnc2[nH]cnc12)c1nc2ccccc2nc1-c1ccccc1 (stereo not shown) [Compound Q1] , what IC50 is on record?
Output: > 10 µM

Input: For the compound Cc1cccc(-c2nc3ccccc3nc2C(C)Nc2ncnc3[nH]cnc23)c1 (stereo not shown) [Compound Q3] , what IC50 is on record?
Output: > 10 µM

Input: For the compound CCC(Nc1ncnc2[nH]cnc12)c1nc2ccccc2nc1-c1ccccc1 (stereo not shown) [Compound Q12] , what IC50 is on record?
Output: > 10 µM

Input: For the compound Cc1cccc2nc(C(C)Nc3nc(N)nc4[nH]cnc34)c(-c3ccc(F)cc3)nc12 (stereo not shown) [Compound Q5] , what IC50 is on record?
Output: 0.459 µM

----------
- system_name: PI3Kγ (p110 gamma) (Homo sapiens)
- Construct: purchased Invitrogen
- measurement_description: PI3K biochemical enzyme assay (Adapta universal kinase assay), p110 gamma
- condition_description: Table 1, lower part; read-out: PI3Kγ IC50
parameter_measured: log10 IC50 (log10 of the value in µM)
Reminder: these figures are log10 of reported IC50, in µM before transformation.

Input: For the compound Nc1nc(NCc2nc3ccccc3nc2-c2ccccc2)c2nc[nH]c2n1 [Compound Q17] , what log10 IC50 is on record?
Output: -0.16

Input: For the compound c1ccc(-c2nc3ccccc3nc2CSc2ncnc3[nH]cnc23)cc1 [Compound Q14] , what log10 IC50 is on record?
Output: 1.24

Input: For the compound Nc1nc(SCc2nc3ccccc3nc2-c2ccccc2)c2nc[nH]c2n1 [Compound Q15] , what log10 IC50 is on record?
Output: 0.38

Input: For the compound c1ccc(-c2nc3ccccc3nc2CNc2ncnc3[nH]cnc23)cc1 [Compound Q16] , what log10 IC50 is on record?
Output: 1.31

Input: For the compound Nc1ncnc2c1ncn2Cc1nc2ccccc2nc1-c1ccccc1 [Compound Q13] , what log10 IC50 is on record?
Output: 1.67

----------
- system_name: PI3Kα (p110α/p85α) (Homo sapiens, UniProt P42336)
- Construct: purchased Invitrogen
- Sequence (P42336 whole entry): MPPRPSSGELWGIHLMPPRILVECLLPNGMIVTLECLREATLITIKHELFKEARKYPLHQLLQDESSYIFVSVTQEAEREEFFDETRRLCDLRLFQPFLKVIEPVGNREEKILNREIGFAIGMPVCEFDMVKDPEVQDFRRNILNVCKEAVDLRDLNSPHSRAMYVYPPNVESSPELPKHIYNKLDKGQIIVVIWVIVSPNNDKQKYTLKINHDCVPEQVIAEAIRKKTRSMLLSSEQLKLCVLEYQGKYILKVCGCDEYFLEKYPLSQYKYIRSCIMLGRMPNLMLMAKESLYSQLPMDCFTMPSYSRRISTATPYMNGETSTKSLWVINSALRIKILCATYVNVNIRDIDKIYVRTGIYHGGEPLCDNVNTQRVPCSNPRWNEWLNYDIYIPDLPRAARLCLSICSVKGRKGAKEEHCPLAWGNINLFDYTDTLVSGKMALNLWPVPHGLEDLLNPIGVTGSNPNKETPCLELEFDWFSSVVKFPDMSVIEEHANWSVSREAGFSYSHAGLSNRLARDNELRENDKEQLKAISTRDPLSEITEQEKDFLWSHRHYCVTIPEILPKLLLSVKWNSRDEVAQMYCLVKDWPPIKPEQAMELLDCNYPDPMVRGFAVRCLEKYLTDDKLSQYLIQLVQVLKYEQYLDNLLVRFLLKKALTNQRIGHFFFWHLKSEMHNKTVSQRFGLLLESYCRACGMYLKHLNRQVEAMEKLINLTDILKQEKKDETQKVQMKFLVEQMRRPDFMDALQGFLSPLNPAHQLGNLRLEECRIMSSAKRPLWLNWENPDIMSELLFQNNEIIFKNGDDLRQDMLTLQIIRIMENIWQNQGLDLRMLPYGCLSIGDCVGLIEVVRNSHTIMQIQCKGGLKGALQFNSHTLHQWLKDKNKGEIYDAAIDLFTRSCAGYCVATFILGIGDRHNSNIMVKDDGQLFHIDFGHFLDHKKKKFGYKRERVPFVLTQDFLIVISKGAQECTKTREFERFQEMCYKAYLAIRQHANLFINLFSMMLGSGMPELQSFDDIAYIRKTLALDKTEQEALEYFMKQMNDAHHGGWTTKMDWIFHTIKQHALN
- Sequence (P27986 whole entry partner): as the sequence (P27986 whole entry partner) above
- measurement_description: PI3K biochemical enzyme assay (Adapta universal kinase assay), p110 alpha/p85 alpha
- condition_description: Table 2, PI3k biochemical assays; read-out: p110α/p85α IC50
parameter_measured: IC50

Input: # get_value(readout= IC50, system= PI3Kα (p110α/p85α) (Homo sapiens, UniProt P42336)) for CC(Nc1ncnc2[nH]cnc12)c1nc2ccccc2nc1-c1cc(F)cc(F)c1 (stereo not shown)
Output: > 10 µM

Input: # get_value(readout= IC50, system= PI3Kα (p110α/p85α) (Homo sapiens, UniProt P42336)) for Cc1cccc(-c2nc3ccccc3nc2C(C)Nc2ncnc3[nH]cnc23)c1 (stereo not shown)
Output: > 10 µM

Input: # get_value(readout= IC50, system= PI3Kα (p110α/p85α) (Homo sapiens, UniProt P42336)) for CCC(Nc1ncnc2[nH]cnc12)c1nc2cccc(F)c2nc1-c1ccccc1 (stereo not shown)
Output: > 10 µM

Input: # get_value(readout= IC50, system= PI3Kα (p110α/p85α) (Homo sapiens, UniProt P42336)) for CCC(Nc1ncnc2[nH]cnc12)c1nc2ccccc2nc1-c1ccccc1 (stereo not shown)
Output: > 10 µM

----------
- system_name: PI3Kδ (p110δ/p85α) (Homo sapiens, UniProt O00329)
- Construct: purchased Invitrogen
- measurement_description: PI3K biochemical enzyme assay (Adapta universal kinase assay), p110 delta/p85 alpha
- condition_description: 0.1 μM; read-out: PI3Kδ % inhib
parameter_measured: inhibition at 0.1 µM
Write your answer as a measured quantity: the number, then the unit.

Input: # get_value(readout= inhibition at 0.1 µM, system= PI3Kδ (p110δ/p85α) (Homo sapiens, UniProt O00329)) for Cc1cccc2nc(C(C)n3cnc4c(N)ncnc43)c(-c3ccccc3)nc12 (stereo not drawn)
Output: 63%

Input: # get_value(readout= inhibition at 0.1 µM, system= PI3Kδ (p110δ/p85α) (Homo sapiens, UniProt O00329)) for CC(Nc1ncnc2[nH]cnc12)c1nc2ccccc2nc1-c1ccccc1 (stereo not drawn)
Output: 74%

Input: # get_value(readout= inhibition at 0.1 µM, system= PI3Kδ (p110δ/p85α) (Homo sapiens, UniProt O00329)) for CCC(Nc1ncnc2[nH]cnc12)c1nc2ccccc2nc1-c1ccccc1 (stereo not drawn)
Output: 71%

----------
- system_name: PI3Kγ (Mus musculus)
- Construct: endogenous in cells
- Sequence (Q9JHG7 whole entry): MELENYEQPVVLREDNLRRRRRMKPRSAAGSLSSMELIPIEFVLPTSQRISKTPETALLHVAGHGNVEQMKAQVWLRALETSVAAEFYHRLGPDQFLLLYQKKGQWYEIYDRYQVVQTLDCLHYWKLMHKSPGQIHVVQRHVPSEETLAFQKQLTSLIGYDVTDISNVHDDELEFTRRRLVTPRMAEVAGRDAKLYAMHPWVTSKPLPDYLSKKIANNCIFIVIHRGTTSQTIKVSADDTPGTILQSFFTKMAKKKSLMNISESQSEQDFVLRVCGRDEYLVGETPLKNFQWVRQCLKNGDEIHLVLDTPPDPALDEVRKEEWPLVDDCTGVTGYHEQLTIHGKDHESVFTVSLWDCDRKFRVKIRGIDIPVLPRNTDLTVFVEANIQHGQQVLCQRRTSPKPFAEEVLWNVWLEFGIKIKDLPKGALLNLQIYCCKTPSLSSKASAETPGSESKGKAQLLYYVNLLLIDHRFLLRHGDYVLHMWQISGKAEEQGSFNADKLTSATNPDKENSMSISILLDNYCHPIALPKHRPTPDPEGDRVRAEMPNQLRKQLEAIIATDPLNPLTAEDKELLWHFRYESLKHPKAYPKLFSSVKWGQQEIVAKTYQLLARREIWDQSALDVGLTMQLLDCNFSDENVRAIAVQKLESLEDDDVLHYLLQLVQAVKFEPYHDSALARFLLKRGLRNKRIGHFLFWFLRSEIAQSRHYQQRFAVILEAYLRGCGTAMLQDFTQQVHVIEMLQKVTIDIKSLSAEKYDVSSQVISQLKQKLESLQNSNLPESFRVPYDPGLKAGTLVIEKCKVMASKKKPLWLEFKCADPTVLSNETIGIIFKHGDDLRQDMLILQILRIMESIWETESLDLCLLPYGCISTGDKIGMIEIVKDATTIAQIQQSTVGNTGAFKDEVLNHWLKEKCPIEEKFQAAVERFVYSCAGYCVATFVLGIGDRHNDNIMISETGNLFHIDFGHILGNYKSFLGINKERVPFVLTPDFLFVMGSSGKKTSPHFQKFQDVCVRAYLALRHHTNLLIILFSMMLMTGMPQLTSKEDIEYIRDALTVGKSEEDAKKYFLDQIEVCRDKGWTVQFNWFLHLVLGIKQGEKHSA
- measurement_description: PI3Kγ-dependent cell-based assay: C5a-mediated AKT phosphorylation in RAW-264 cells
- condition_description: C5a-induced AKT phosphorylation, RAW-264 macrophages
pEC50: −log10 of the molar value.
parameter_measured: pEC50

Input: For the compound CC(Nc1ncnc2[nH]cnc12)c1nc2ccccc2nc1-c1c(F)cccc1F (stereo not drawn) , what pEC50 is on record?
Output: < 4.70

Input: For the compound CC(Nc1ncnc2[nH]cnc12)c1nc2ccccc2nc1-c1cc(F)cc(F)c1 (stereo not drawn) , what pEC50 is on record?
Output: < 4.70

Input: For the compound CCC(Nc1ncnc2[nH]cnc12)c1nc2cccc(F)c2nc1-c1ccccc1 (stereo not drawn) , what pEC50 is on record?
Output: < 4.70
